# Tested on: SK-MEL-2 melanoma
# protocol_text: NCI tumour cell line growth inhibition, 48 h
quantity_kind: GI50

For orientation, consider the following solved cases.
{"compound": "Cc1ccc2ncnc(N(C)C3CCCCC3)c2c1", "GI50": "37.5 µM"}
{"compound": "O=C1/C(=C/c2ccc(Cl)cc2)CN(Cc2cn(CCCNc3ccnc4cc(Cl)ccc34)nn2)C/C1=C\\c1ccc(Cl)cc1", "GI50": "2.03 µM"}
{"compound": "COc1cc(/C=C2\\CCC/C(=C\\c3cc(CN4CCCC4)c(O)c(OC)c3)C2=O)cc(CN2CCCC2)c1O", "GI50": "5.09 µM"}
{"compound": "Cn1cc(-c2csc(-c3ccccc3)n2)c2cccnc21", "GI50": "18.5 µM"}
{"compound": "COc1cccc(C(=O)NNc2nc(Cl)nc(N3CCN(C(c4ccccc4)c4ccccc4)CC3)n2)c1", "GI50": "2.14 µM"}

Report GI50 for each item below.
1. CCCCCCCCCN=C(N)c1ccc(N2CCN(c3ccc(C(N)=NCCCCCCCCC)cc3)CC2)cc1
2. CCCCCOC(=O)Nc1nc(=O)n(C2OC(C)C(O)C2O)cc1F (centres undefined)
3. CO/N=C(/C)COc1ccc2c(c1)oc(=O)c1cc(OC)ccc12

1. 2.88 µM
2. > 10000 µM
3. > 100 µM

Lab note: need GI50 for Cc1ccc(C2=NN(c3ccc(S(=O)(=O)NC(=O)NCc4ccccc4)cc3)C(c3ccc(N(C)C)cc3)C2)c(C)c1 (centres undefined) on SK-MEL-2 melanoma, anyone have it? 3.32 µM
